# measurementProtocol: qHTS screen for small molecules that inhibit ELG1-dependent DNA repair in human embryonic kidney (HEK293T) cells expressing luciferase-tagged ELG1; further: nearly all actives have a fitted effect of over 55% in size
# experimentalParameters: HEK293T ELG1-luciferase reporter, luminescence, 16 h, DNA damage induced by 5-fluorouridine; series mostly up to 46.1 µM
# Source text: NIH Molecular Libraries Probe Production Network [MLPCN] NIH Chemical Genomics Center [NCGC] MLPCN Grant: 1 R03 MH092164-01 Assay Provider: Kyungjae Myung, NHGRI, NIH Keywords: MLPCN, qHTS, NCGC, genotoxicity, cancer Assay Overview: Cancer cells divide rapidly compared to normal cells in the body. During cell division, cancer cells need to duplicate their genome by DNA replication. […] With this in mind, we developed a quantitative high-throughput ELG1-luciferase reporter gene assay. […]
About 7,700 (2.3%) of roughly 330,000 compounds were called active. Roughly 26% stayed inconclusive and do not appear here. The call rests on the fitted dose curve; in most records, active means well fitted inhibition curve with a large enough effect; inconclusive means small, poorly fitted or top-dose-only effect, or effect the other way; inactive means flat fitted curve, though single readings scatter. Only a selection was taken, and actives are over-represented in it overall.
// classify into class 1 = active, class 0 = inactive

Called result for O=C(NC(=S)Nc1ccc(S(=O)(=O)N2CCOCC2)cc1)c1ccccc1[N+](=O)[O-]
class 0

Called result for CSc1ncccc1C(=O)Nc1ccc(C)cn1
class 0

Called result for O=C1CC2(CC(c3ccc(Cl)cc3)=NO2)C(=O)N1c1ccccc1 (stereo not given)
class 0

Called result for O=[N+]([O-])c1cc(Cl)cc(/C=N/NC(=S)Nc2cc(S(=O)(=O)N3CCOCC3)ccc2Cl)c1O
class 1

Called result for Cc1nc(C(=O)Nc2ccc(Cl)cc2)sc1C1(C)CC(c2ccccc2)=NO1 (stereo not given)
class 1

---

# measurementProtocol: qHTS screen for small molecules that inhibit ELG1-dependent DNA repair in human embryonic kidney (HEK293T) cells expressing luciferase-tagged ELG1; further: nearly all actives have a fitted effect of over 55% in size; further: potency means the concentration at half of the fitted maximal effect
# experimentalParameters: HEK293T ELG1-luciferase reporter, luminescence, 16 h, DNA damage induced by 5-fluorouridine; series mostly up to 46.1 µM
Out of some 330,000 compounds screened, about 7,700 (2.3%) were called active. Not shown: some 26% with an inconclusive outcome. The sample as a whole holds a higher share of actives than the screen did.
measuredMetric: Potency

- molecule: "COc1ccc(-c2nn(-c3ccccc3)cc2C(=O)Nc2nccs2)cc1OC"
  reportedValue: "3.26 µM (active)"
- molecule: "O=C(Nc1ccc(S(=O)(=O)NCC2CCCO2)cc1)c1ccc(F)cc1 (stereo unspecified)"
  reportedValue: "inactive"
- molecule: "COc1ccc(C(CNC(=O)COc2ccc([N+](=O)[O-])cc2)N2CCCCC2)cc1 (stereo unspecified)"
  reportedValue: "inactive"
- molecule: "CCCCN(C(=O)C1CCC1)c1c(N)n(Cc2ccccc2)c(=O)[nH]c1=O"
  reportedValue: "inactive"
- molecule: "COc1ccc(CNC(=O)/C(C#N)=C/c2cccc(OC)c2OC)cc1"
  reportedValue: "inactive"
- molecule: "Cc1nnc(SCC(=O)N/N=C/c2cn(-c3ccccc3)nc2-c2ccc(F)cc2)n1-c1ccccc1"
  reportedValue: "inactive"
- molecule: "Cc1ccc(NC(=O)c2ccc(S(=O)(=O)NCC3CCCO3)cc2)cc1C (stereo unspecified)"
  reportedValue: "inactive"
- molecule: "CCC(=O)Nc1ccc(S(=O)(=O)NCC2CCCO2)cc1 (stereo unspecified)"
  reportedValue: "inactive"
- molecule: "COc1ccc(S(=O)(=O)N2CCN(CC(=O)N3CCOCC3)CC2)cc1OC"
  reportedValue: "inactive"
- molecule: "COc1ccccc1CN1CCN(C(c2ccccc2)c2ccccc2)CC1"
  reportedValue: "inactive"

Okay, now this molecule:
I'd like to know its Potency. The molecule in question is CC(C)(C)c1ccc(Oc2ccc(N)cc2)cc1
7.31 µM (active)

---

# measurementProtocol: qHTS screen for small molecules that inhibit ELG1-dependent DNA repair in human embryonic kidney (HEK293T) cells expressing luciferase-tagged ELG1; further: nearly all actives have a fitted effect of over 55% in size
# experimentalParameters: HEK293T ELG1-luciferase reporter, luminescence, 16 h, DNA damage induced by 5-fluorouridine; series mostly up to 46.1 µM
Hit rate of the full screen: of about 330,000 compounds, about 7,700 (2.3%) were called active. About 26% were inconclusive and are not listed. Calls follow the shape of the dose curve; as a rule, active = well fitted inhibition curve with a large enough effect; inconclusive = small, poorly fitted or top-dose-only effect, or effect the other way; inactive = flat fitted curve, though single readings scatter. This excerpt belongs to a sample that is enriched for actives.
// classify into 1.0 for active, 0.0 for inactive

Called result for COc1cc(/C=C2\SC(=O)NC2=O)ccc1OCc1ccc(Cl)nc1
0.0

Called result for Cc1noc(C)c1C(=O)OCC(=O)/C=C1\N(C)c2ccccc2C1(C)C
0.0

Called result for Cc1cccc(NC(=O)c2ccc3c(=O)n(CC4CCCO4)c(=S)[nH]c3c2)c1 (stereo not given)
1.0

Called result for Cc1ccc2c(c1)C(c1ccccc1)N(C(=O)c1ccc(F)cc1)CC(=O)N2 (stereo not given)
0.0

Called result for CCCCOc1ccc(C(=O)NN2CCN(C)CC2)cc1
0.0

Called result for O=S(=O)(c1ccc(NC(=S)NN=C(C2CC2)C2CC2)cc1)N1CCOCC1
0.0

Called result for COC(=O)c1cc(Oc2ccc(S(=O)(=O)N3CCOCC3)cc2[N+](=O)[O-])cc(C(=O)OC)c1
0.0

Called result for CC(=O)Nc1cccc(OCC(=O)/C=C2\N(C)c3ccccc3C2(C)C)c1
1.0

Called result for CCOc1cccc(NC(=O)CC#N)c1
0.0

Called result for CCOCc1c(C(=O)N2CCN(Cc3ccc(Br)s3)CC2)oc2ccccc12
0.0

---

# measurementProtocol: qHTS screen for small molecules that inhibit ELG1-dependent DNA repair in human embryonic kidney (HEK293T) cells expressing luciferase-tagged ELG1; further: nearly all actives have a fitted effect of over 55% in size
# experimentalParameters: HEK293T ELG1-luciferase reporter, luminescence, 16 h, DNA damage induced by 5-fluorouridine; series mostly up to 46.1 µM
# Text: NIH Molecular Libraries Probe Production Network [MLPCN] NIH Chemical Genomics Center [NCGC] MLPCN Grant: 1 R03 MH092164-01 Assay Provider: Kyungjae Myung, NHGRI, NIH Keywords: MLPCN, qHTS, NCGC, genotoxicity, cancer Assay Overview: Cancer cells divide rapidly compared to normal cells in the body. During cell division, cancer cells need to duplicate their genome by DNA replication. […] With this in mind, we developed a quantitative high-throughput ELG1-luciferase reporter gene assay. […]
Hit rate of the full screen: of about 330,000 compounds, about 7,700 (2.3%) were called active. Inconclusive results (about 26%) are left out. Calls come from the whole dose curve; as a rule, active = well fitted inhibition curve with a large enough effect; inconclusive = small, poorly fitted or top-dose-only effect, or effect the other way; inactive = flat fitted curve, though single readings scatter. This is one part of a sample in which actives are shown more often than they occur.
// classify into active, inactive

Called result for Cc1ccc(C)c(N2CCN(C(=O)CCCCCn3c(=S)[nH]c4ccc(N5CCOCC5)cc4c3=O)CC2)c1
active

Called result for O=S(=O)(c1cccs1)N1CCN(Cc2ccccc2)CC1
inactive

Called result for Cc1ccc(C)c(N2CCN(C(=O)Cn3ncn4cccc4c3=O)CC2)c1
inactive

Called result for Cc1ccc(OCCNC(=O)CN2C(=O)NC3(CCCC3)C2=O)cc1
inactive

Called result for CCOC(=O)C1CCN(c2ncnc3c2oc2ccc(Br)cc23)CC1
inactive

Called result for CCc1nn(CC(=O)N2CCN(c3cc(C)ccc3C)CC2)c(=O)c2cc3occc3n12
inactive

Called result for Cc1ccc(S(=O)(=O)N2CCC(C(=O)NCCC3=CCCCC3)CC2)cc1C
inactive

Called result for Cc1ccc(-c2c[n+](CC(=O)Nc3ccccc3)c3n2CCC3)cc1
inactive

Called result for Cc1ccc(N2C(=O)N3[C@@H]4c5ccccc5OC[C@@H]4[C@@H](c4ccccc4)[C@@]3(C)C2=O)cc1
inactive

Called result for O=c1cc(CN2CCN(S(=O)(=O)/C=C/c3ccccc3)CC2)c2ccc(O)cc2o1
inactive

Called result for COc1ccc(CC(=O)N[C@@H]2c3cc(OC)c(OC)cc3C[C@H]2OCc2ccccc2)cc1
inactive

Called result for COc1ccc2c(CN3CCN(S(=O)(=O)c4cccs4)CC3)cc(=O)oc2c1
active

Called result for COc1ccc2[nH]c3c(c2c1)CCN1C(=O)C(CC(=O)NCCCN(C)C)C[C@H](C(=O)N2CCOCC2)[C@@]31CCC1CCCC1 (stereo not given in full)
inactive

Called result for CCOc1ccc(NC(=O)CN(C)C(=O)c2cccc(S(=O)(=O)N3CCCC3)c2)cc1OCC
inactive

Called result for CCCCN1C(=O)C(C)=C(C)C1OCCc1ccc(OC)c(OC)c1 (stereo not given)
inactive

Called result for Cc1ccc(C)c(N2CCN(C(=O)CCCn3c(=O)c4cccn4c4cccnc43)CC2)c1
active

Called result for CC(C)c1ccc2oc(=O)cc(CN3CCN(Cc4ccccc4)CC3)c2c1
inactive

Called result for Clc1ccc(C[n+]2cc(-c3ccccc3)n3c2CCC3)cc1
active

Called result for O=C(CCCCCn1c(=S)[nH]c2cc3c(cc2c1=O)OCO3)N1CCN(c2ccc(F)cc2)CC1
inactive

Called result for Cc1ccc2c(CN3CCN(S(=O)(=O)c4ccccc4C(F)(F)F)CC3)cc(=O)oc2c1
active

---

# measurementProtocol: qHTS screen for small molecules that inhibit ELG1-dependent DNA repair in human embryonic kidney (HEK293T) cells expressing luciferase-tagged ELG1; further: nearly all actives have a fitted effect of over 55% in size; further: potency means the concentration at half of the fitted maximal effect
# experimentalParameters: HEK293T ELG1-luciferase reporter, luminescence, 16 h, DNA damage induced by 5-fluorouridine; series mostly up to 46.1 µM
The whole screen tested about 330,000 compounds, of which about 7,700 (2.3%) were called active. Inconclusive results (about 26%) are left out. The sample holds actives, similar compounds and a random draw of the others, so the mix is not that of the screen.
measuredMetric: Potency

Examples with their reported Potency follow.
- molecule: "COc1cc(C(=O)OC(C)C(=O)NCC2CCCCC2)cc(NC(=O)c2ccco2)c1OC (stereo unspecified)"
  Potency: "11.6 µM (active)"
- molecule: "O=C(CN1C(=O)CCC1=O)Nc1ccc(S(=O)(=O)N2CCOCC2)cc1"
  Potency: "inactive"
- molecule: "CC(C)n1cnc2c(NCc3ccccc3)cc(OCC3CCN(C)CC3)cc21"
  Potency: "inactive"
- molecule: "CC1CCCCC1NC(=O)Cn1cnc2c1c(=O)n(C)c(=O)n2C (stereo unspecified)"
  Potency: "inactive"
- molecule: "CCn1c2ccc(F)cc2c2nnc(SCCN3CCOCC3)nc21"
  Potency: "inactive"
- molecule: "CCOC(=O)N1CCN(CC(=O)Nc2cc(C)nn2-c2nc3ccccc3s2)CC1"
  Potency: "10.3 µM (active)"

I'd like to know its Potency. The molecule in question is COc1ccc(C)cc1NC(=O)CSc1nnc2ccc(-c3ccccn3)nn12
inactive

I'd like to know its Potency. The molecule in question is CCn1ccnc1CN1CCCC(C(=O)c2ccc3c4c(cccc24)CC3)C1 (stereo unspecified)
inactive

I'd like to know its Potency. The molecule in question is COc1cccc(CNc2ncc(-c3ccccc3)n2C)c1
inactive

I'd like to know its Potency. The molecule in question is COc1ccc(-n2c(SCC(=O)Nc3sc4c(c3C#N)CCCC4)nnc2-c2ccc(O)cc2)cc1
18.4 µM (active)
